Molecular target: human aryl hydrocarbon receptor (AhR) (Homo sapiens, UniProt P35869)
Construct: host or cells: Saccharomyces cerevisiae strain YCM3 (derived from W303a), AhR and ARNT integrated on chromosome III under a galactose promoter
Sequence (P35869 11-848): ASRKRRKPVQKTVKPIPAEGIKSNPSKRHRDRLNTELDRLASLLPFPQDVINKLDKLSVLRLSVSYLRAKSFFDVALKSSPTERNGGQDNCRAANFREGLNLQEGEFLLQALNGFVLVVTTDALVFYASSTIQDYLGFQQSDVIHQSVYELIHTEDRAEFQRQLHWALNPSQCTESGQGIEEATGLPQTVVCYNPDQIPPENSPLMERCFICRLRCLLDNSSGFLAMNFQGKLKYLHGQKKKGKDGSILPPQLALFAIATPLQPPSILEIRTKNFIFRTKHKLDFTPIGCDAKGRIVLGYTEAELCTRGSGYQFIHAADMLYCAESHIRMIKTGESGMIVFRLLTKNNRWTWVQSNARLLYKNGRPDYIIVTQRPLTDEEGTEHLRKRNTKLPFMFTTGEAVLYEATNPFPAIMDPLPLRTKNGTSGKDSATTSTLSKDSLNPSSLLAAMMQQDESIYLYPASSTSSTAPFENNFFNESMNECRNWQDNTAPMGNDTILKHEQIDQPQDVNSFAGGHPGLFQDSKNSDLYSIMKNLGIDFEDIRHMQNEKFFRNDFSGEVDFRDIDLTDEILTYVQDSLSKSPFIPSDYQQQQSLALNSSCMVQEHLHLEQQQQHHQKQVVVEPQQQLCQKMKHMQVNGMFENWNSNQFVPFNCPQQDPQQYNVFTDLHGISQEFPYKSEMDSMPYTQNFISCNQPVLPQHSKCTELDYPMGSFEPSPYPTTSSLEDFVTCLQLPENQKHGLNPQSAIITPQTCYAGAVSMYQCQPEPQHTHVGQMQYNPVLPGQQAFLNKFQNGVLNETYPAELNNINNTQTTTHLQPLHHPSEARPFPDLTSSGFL
Sequence (P27540 whole entry partner): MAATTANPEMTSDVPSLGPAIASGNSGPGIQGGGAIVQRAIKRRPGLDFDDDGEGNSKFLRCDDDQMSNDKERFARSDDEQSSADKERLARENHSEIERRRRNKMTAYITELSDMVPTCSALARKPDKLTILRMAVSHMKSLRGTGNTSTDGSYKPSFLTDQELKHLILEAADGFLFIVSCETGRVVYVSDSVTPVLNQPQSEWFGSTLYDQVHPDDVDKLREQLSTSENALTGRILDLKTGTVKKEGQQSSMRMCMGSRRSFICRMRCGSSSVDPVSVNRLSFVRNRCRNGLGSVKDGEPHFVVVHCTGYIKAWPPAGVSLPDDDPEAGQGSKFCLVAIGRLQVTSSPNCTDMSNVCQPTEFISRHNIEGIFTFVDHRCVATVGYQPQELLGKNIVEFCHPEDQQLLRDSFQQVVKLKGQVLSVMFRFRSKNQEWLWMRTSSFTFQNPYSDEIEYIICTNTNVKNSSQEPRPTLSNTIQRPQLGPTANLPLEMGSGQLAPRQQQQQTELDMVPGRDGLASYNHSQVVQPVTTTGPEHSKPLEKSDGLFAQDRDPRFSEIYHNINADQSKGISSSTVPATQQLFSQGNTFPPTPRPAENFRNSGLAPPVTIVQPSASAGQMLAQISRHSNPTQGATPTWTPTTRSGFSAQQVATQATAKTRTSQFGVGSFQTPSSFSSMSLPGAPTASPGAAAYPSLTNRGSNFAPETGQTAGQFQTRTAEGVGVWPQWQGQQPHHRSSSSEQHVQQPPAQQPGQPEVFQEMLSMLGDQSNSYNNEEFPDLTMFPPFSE
Assay: Yeast bioassay of human AhR activation (YCM3 yeast, LacZ reporter)
Type: cell-based
Conditions: human; 1 μM BNF set as 100%; read-out: maximal response
Method: Cell culture. An engineered Saccharomyces cerevisiae yeast strain, YCM3, was used for the present study. […] Yeast bioassay. […] Cell densities were determined from the first 96-well plate by measuring A600 nm and the color intensities of LacZ reactions determined by A405 nm from the corresponding wells of the second plate. A450 sample is the measurement of a ligand-treated well at 405 nm absorbance and A450 empty is the measurement of a well that contains only medium and no cells. […]
MEASURED_ATTRIBUTE: Emax at 18 h (%)
Just the number in %, nothing appended.

Which Emax at 18 h reading was recorded for the compound Cc1cccc2c1ccc1ccccc12 ?
109
